- protocolText: Human HepG2 cell viability assay in 384 well format
- Type: toxicity, cell-based
- Parameters: dose 125 nL, time 70.5 hour; concentration not given beside the values
- recordedConditions: HepG2 cells, read-out: Inhibition
recordedEndpoint: cytotoxicity at 70.5 h (%)

Cc1nn(C)c(C)c1CCC(=O)N1CC(c2cccnc2)C1 : 0.0861
CC(=O)N1CCCC1CCc1ccnc(-c2cncnc2)c1 (stereo unspecified) : -2.53
CN(C)C(=O)COC1COC2(CCN(c3cccc(F)c3)CC2)C1 (stereo unspecified) : 2.89
CCNC(=O)[C@@H]1C[C@@H](NC(=O)Cc2ccccn2)CN1CCCSC : 14.8
COc1cccc(CC2CCCN2CCCC#N)c1 (stereo unspecified) : -1.21
CCn1cc(NC(=O)C(C)n2ncc(Cl)c2C)c(C(=O)NCC(C)C)n1 (stereo unspecified) : -3.04
Cc1cc(CC(=O)NC2CCCN(c3ccccc3Cl)C2=O)n[nH]1 (stereo unspecified) : -19
N#Cc1ccc(F)c(CN2CCCC2Cn2cnc3ccccc32)c1 (stereo unspecified) : 7.39
CNc1cc(C2CCCN2C(=O)c2ccc3oc(=O)n(C)c3c2)ccn1 (stereo unspecified) : -12.4
CC(C)C1CN(S(=O)(=O)Cc2cccc(C#N)c2)CCS1 (stereo unspecified) : -9.85
Cn1cc(N2CC3(CCN(CC4CCOCC4)CC3)OCC2=O)cn1 : -17.2

---

- protocolText: Human HepG2 cell viability assay in 384 well format
- Type: toxicity, cell-based
- Set-up: dose 125 nL, time 70.5 hour; concentration not given beside the values
- recordedConditions: HepG2 cells, read-out: Inhibition
recordedEndpoint: cytotoxicity at 70.5 h (%)

Cc1ccc(C(=O)O)cc1CNC(=O)CN1CC(C)(C)[C@@](C)(O)C1 : -6.75
CN(C)CCNc1c(-c2ccccc2)c(=O)c1=O : -1.53
COc1ccc(NC(=O)NCc2ccnc(N(C)C)c2)cn1 : 14.3
Cc1ccc(C2COCCN2C(=O)c2cccc(N(C)C)c2)o1 (stereo unspecified) : -7.51
COc1ccc(-n2c(SC)nc(O)c(Cc3ccccc3)c2=O)cc1 : -2.29
Cc1cc(C)n(CC2CCCCN2CC(=O)Nc2nncs2)n1 (stereo unspecified) : -7.4
O=C(CCCN1CCCCC1)N1CCN(C(=O)c2nc[nH]n2)CC1 : -3.03
Cc1ccc(C(=O)N2CCC3(CCCN(c4ncc(F)cn4)C3)C2)cn1 (stereo unspecified) : -5.14
CCO[C@H]1CC[C@H]2[C@H]1OCCN2CCOCc1ccccc1 : -11.1
Cc1ccc(CN2CCC3(CC(=O)N(c4ccc5c(c4)OCO5)C3)C2)o1 (stereo unspecified) : -6.86
Cn1cc(CN2CCC3(CC2)CC(=O)Nc2ccccc23)cn1 : -1.78

---

Overview of recorded cytotoxicity at 70.5 h for various molecules
- protocolText: Human HepG2 cell viability assay in 384 well format
- Type: toxicity, cell-based
- Design: dose 125 nL, time 70.5 hour; concentration not given beside the values
- recordedConditions: HepG2 cells, read-out: Inhibition
recordedEndpoint: cytotoxicity at 70.5 h

CC(C)Cc1cc(C(=O)NCC(c2ccc(F)cc2)N(C)C)n(C)n1 (stereo unspecified) : -15.4%
COCCC1CN(Cc2cn(CCC(N)=O)c3ccccc23)CCO1 (stereo unspecified) : -5.24%
COc1cc(C)ccc1OCc1nc(C(=O)N2CCCO2)co1 : 10.4%
O=C(c1cccnc1SCc1ccccc1)N1CCOCC1 : 0.0391%
Cc1ccc2cc(C3(O)CCN(C(=O)CN4CCCC4)CC3)ccc2n1 : -3.01%
O=C1C(NS(=O)(=O)c2cc(F)cc(F)c2)CCN1Cc1ccccc1 (stereo unspecified) : 23.4%
COCCNC(=O)C[C@@H]1COC[C@H]2CN(C(=O)c3cnccn3)C[C@@H]12 : -6.71%
CC(C)(NC(=O)c1ccc(-c2ccccc2F)s1)C(N)=O : 12.6%
CC(C)COCCC(=O)NS(=O)(=O)c1ccc(Cl)s1 : -16.7%
CC(C)CN1CC[C@@H]2[C@@H]1CCN2S(=O)(=O)c1cccs1 : -18%
NC(=O)C1CCN(C(=O)NC(Cc2ccccc2)C(F)(F)F)CC1 (stereo unspecified) : 3.75%
